src = patent US20100298141A1

tested on: lambsquarters; assay: Test C pre-/postemergence test; assay type: in vivo, Chenopodium album; details: Postemergence, 125 g ai/ha; scale 0 to 100, 0 no effect, 100 complete control
READOUT_LABEL: Plant response rating, Lambsquarters
Write no unit; give the number alone.

Recorded Plant response rating, Lambsquarters for CCn1nc(C(F)(F)F)c(C[S+]([O-])c2cccc[n+]2[O-])c1OCC(F)(F)F (racemic) [Compound 65] , please? 50

Repeat for the following compound: CCn1nc(C(F)(F)F)c(CS(=O)(=O)c2cc(C)cc[n+]2[O-])c1OCC(F)(F)F [Compound 64] 0

Repeat for the following compound: Cn1nc(C(F)(F)F)c(C[S+]([O-])c2ccc(Cl)c[n+]2[O-])c1OC(F)F (centres unmarked) [Compound 6] 10

Repeat for the following compound: CC(c1c(C(F)(F)F)nn(C)c1OC(F)F)S(=O)(=O)c1cccc[n+]1[O-] (centres unmarked) [Compound 5] 0

Repeat for the following compound: [O-][n+]1cc(Cl)ccc1[S+]([O-])Cc1c(C(F)(F)F)nn(CC(F)(F)F)c1Cl (centres unmarked) [Compound 47] 0

Repeat for the following compound: Cn1nc(C(F)(F)F)c(C[S+]([O-])c2ccc(F)c[n+]2[O-])c1OC(F)F (centres unmarked) [Compound 58] 0

Repeat for the following compound: CC(c1c(C(F)(F)F)nn(C)c1Cl)S(=O)(=O)c1ccc(Cl)c[n+]1[O-] (racemic) [Compound 40] 0

Repeat for the following compound: Cn1nc(C(F)(F)F)c(C[S+]([O-])c2ccc(Cl)c[n+]2[O-])c1OCC(F)(F)F (racemic) [Compound 62] 0

====

System: velvetleaf
Assay: Test C pre-/postemergence test
Type: in vivo, Abutilon theophrasti
Conditions: Postemergence, 250 g ai/ha; scale 0 to 100, 0 no effect, 100 complete control
Description: Seeds of plant species selected from blackgrass (Alopecurus myosuroides), downy brome (Bromus tectorum), green foxtail (Setaria viridis), Italian ryegrass (Lolium multiflorum), wheat (Triticum aestivum), wild oat (Avena fatua), catchweed bedstraw (Galium aparine), Russian thistle (Salsola kali), […] […]
READOUT_LABEL: Plant response rating, Velvetleaf
Write no unit; give the number alone.

Recorded Plant response rating, Velvetleaf for CCn1nc(C(F)(F)F)c(CS(=O)(=O)c2cc(C)cc[n+]2[O-])c1OCC(F)(F)F , please? 40

Repeat for the following molecule: CC(c1c(C(F)(F)F)nn(C)c1Cl)S(=O)(=O)c1ccc(Cl)c[n+]1[O-] (racemic) 0

Repeat for the following molecule: CCn1nc(C(F)(F)F)c(C(C)S(=O)(=O)c2cccc[n+]2[O-])c1OCC(F)(F)F (stereo not shown) 0

Repeat for the following molecule: Cn1nc(C(F)(F)C(F)(F)F)c(C[S+]([O-])c2cccc[n+]2[O-])c1OCC(F)(F)F (stereo not shown) 70

====

tested on: kochia; assay: Test C pre-/postemergence test; type: in vivo, Kochia scoparia; conditions: Preemergence, 250 g ai/ha
Answer each item with its documented Plant response rating (0 to 100), Kochia.
Write no unit; give the number alone.

Fill in the recorded Plant response rating (0 to 100), Kochia for this compound, with kochia as test system: Cn1nc(C(F)(F)F)c(C(Cl)S(=O)(=O)c2cccc[n+]2[O-])c1Cl (stereo not drawn) [Compound 12] 80

Repeat for the following compound: Cn1nc(C(F)(F)F)c(C[S+]([O-])c2ccc(Cl)c[n+]2[O-])c1OC(F)F (stereo not drawn) [Compound 6] 0

Repeat for the following compound: Cc1cc[n+]([O-])c(S(=O)(=O)C(C)c2c(C(F)(F)F)nn(C)c2Cl)c1 (racemic) [Compound 14] 100

Repeat for the following compound: Cn1nc(C(F)(F)F)c(C[S+]([O-])c2cccc[n+]2[O-])c1OC(F)F (stereo not drawn) [Compound 3] 100

Repeat for the following compound: Cn1nc(C(F)(F)F)c(CS(=O)(=O)c2cccc[n+]2[O-])c1Cl [Compound 9] 100

Repeat for the following compound: Cn1nc(C(F)(F)F)c(C[S+]([O-])c2ccc(Br)c[n+]2[O-])c1OC(F)F (racemic) [Compound 16] 100
